measuredOn: EPHA1 (human) (UniProt P21709)
Sequence (P21709 whole entry, looked up): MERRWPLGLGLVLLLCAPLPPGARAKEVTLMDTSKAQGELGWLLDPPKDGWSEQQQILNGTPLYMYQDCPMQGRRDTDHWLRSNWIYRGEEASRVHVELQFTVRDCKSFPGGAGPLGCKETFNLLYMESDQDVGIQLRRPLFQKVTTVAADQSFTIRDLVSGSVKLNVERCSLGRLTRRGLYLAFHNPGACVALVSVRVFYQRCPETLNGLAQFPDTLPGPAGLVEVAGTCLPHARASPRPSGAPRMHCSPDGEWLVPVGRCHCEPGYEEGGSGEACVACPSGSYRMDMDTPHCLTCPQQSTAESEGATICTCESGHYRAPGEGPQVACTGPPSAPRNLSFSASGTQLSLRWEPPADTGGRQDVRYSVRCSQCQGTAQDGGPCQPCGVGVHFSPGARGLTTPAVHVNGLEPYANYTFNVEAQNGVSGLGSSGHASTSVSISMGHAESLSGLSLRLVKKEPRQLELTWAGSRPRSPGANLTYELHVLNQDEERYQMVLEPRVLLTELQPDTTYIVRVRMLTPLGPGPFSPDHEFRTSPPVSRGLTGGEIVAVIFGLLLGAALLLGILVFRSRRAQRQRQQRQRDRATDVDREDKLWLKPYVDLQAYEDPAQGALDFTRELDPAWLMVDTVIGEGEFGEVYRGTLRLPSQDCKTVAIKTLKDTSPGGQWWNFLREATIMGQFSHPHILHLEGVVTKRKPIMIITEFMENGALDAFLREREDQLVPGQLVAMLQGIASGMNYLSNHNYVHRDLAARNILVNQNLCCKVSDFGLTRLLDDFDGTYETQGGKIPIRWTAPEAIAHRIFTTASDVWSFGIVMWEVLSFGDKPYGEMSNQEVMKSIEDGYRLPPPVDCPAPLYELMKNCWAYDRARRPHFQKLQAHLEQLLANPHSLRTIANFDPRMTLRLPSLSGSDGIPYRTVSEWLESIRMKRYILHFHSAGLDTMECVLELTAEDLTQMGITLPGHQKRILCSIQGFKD
testProtocol: radiometric filter-binding kinase assay, Kinase HotSpot
assaySetup: compound 0.5 µM; ATP 10 µM
quantityMeasured: residual activity (%)
Kindly provide the numeric value in % only, without the unit symbol.

Use these answered entries as a reference point.
1. O=C1NC(=O)C(c2c[nH]c3ccccc23)=C1c1c[nH]c2ccccc12; 92.1
2. Cn1sc(=O)n(Cc2ccccc2)c1=O; 106
3. COc1cc2ncc(-c3ccccc3)nc2cc1OC; 95.8
4. O=C(CCCc1ccc(-c2ccccc2F)cc1)Nc1ccc(O)cc1; 117
5. O=C1Nc2ccccc2/C1=C1/Nc2ccccc2/C1=N\OCCC(O)CO (stereo unspecified); 82.2
6. CC(=O)O/N=C1\C(=C2\C(=O)Nc3cc(Br)ccc32)Nc2ccccc21; 83.2

Data request: Please report the recorded residual activity for O=C1NC(=O)C(c2cn(CCCO)c3ncccc23)=C1c1cnccn1 .
Data returned: 73.9

Data request: Another compound: Oc1ccc(Nc2nc(-c3ccc(Cl)cc3)cs2)cc1
Data returned: 92.6

Data request: Also need CN(C)C[C@H]1CCn2c(c(C3=C(c4cn(C)c5ccccc45)C(=O)NC3=O)c3ccccc32)C1 , thanks.
Data returned: 100

Data request: Do the same for O=C(O)/C=C/c1cc(Br)c(Br)c(Br)c1Br please
Data returned: 94.6

Data request: Then this compound: COc1ccc(CNC(=O)Nc2ncc([N+](=O)[O-])s2)cc1
Data returned: 107

====

measuredOn: JAK3 JH1 JH2 (human) (UniProt P52333)
Sequence (P52333 whole entry, looked up): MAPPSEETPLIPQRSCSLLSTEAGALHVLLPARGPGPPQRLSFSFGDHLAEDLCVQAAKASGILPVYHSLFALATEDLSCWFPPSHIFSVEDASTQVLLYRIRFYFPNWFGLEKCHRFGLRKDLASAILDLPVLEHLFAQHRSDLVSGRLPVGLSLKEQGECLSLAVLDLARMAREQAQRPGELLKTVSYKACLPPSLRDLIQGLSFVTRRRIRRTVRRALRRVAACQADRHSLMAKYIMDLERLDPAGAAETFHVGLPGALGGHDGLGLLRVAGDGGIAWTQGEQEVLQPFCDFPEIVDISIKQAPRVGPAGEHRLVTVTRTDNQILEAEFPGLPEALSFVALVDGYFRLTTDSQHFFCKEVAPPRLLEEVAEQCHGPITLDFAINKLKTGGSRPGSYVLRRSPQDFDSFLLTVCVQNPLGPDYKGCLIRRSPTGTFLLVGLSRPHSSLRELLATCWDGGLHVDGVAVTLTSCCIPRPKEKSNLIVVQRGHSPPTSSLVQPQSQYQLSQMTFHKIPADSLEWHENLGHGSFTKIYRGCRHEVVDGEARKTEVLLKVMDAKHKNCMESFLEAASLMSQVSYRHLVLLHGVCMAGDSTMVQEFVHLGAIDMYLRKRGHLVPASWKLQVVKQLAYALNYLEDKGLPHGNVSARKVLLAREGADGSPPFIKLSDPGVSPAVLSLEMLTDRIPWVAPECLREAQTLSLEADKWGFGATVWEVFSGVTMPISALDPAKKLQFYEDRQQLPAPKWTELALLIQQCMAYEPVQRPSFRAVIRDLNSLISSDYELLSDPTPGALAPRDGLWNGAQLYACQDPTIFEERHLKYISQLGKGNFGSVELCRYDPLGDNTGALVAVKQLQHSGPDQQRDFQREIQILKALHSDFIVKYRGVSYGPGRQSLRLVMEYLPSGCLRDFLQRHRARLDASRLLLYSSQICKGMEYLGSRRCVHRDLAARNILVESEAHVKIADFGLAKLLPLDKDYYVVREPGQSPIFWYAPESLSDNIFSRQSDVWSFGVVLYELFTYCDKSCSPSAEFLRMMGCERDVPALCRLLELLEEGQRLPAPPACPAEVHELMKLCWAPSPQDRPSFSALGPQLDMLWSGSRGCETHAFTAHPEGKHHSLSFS
testProtocol: radiometric filter-binding kinase assay, Kinase HotSpot
assaySetup: compound 0.5 µM; ATP 10 µM
quantityMeasured: residual activity (%)
API: value field is a number in %; no unit string.

# example entries with known answers
1. O=C(Nc1cccc(Nc2cc(Nc3cccc(C(F)(F)F)c3)ncn2)c1)C1CC1; 106
2. O=C1NC(=O)C(c2c[nH]c3ccccc23)=C1c1c[nH]c2ccccc12; 63
3. CN([C@@H](Cc1ccc(OS(=O)(=O)c2cccc3cnccc23)cc1)C(=O)N1CCN(c2ccccc2)CC1)S(=O)(=O)c1cccc2cnccc12; 98

Data request: Any idea what its residual activity is? The compound is CC(C)c1nn(-c2c(Cl)cccc2Cl)c2nc(Cc3ccc(OCCO)cc3)nc(O)c12
Data returned: 103

====

residual activity values, listed per item
measuredOn: SRPK3 (human)
testProtocol: radiometric filter-binding kinase assay, Kinase HotSpot
assaySetup: compound 0.5 µM; ATP 10 µM
Kindly provide the numeric value in % only, without the unit symbol.

Data request: Please report the recorded residual activity for CCn1cnc2c(Nc3cccc(Cl)c3)nc(N[C@@H]3CCCC[C@@H]3N)nc21 .
Data returned: 94.9

Data request: Another compound to look at: COc1cc2ncc(-c3ccccc3)nc2cc1OC
Data returned: 91.1

Data request: Next entry: CC(C)c1nn(-c2c(Cl)cccc2Cl)c2nc(Cc3ccc(OCCO)cc3)nc(O)c12
Data returned: 92.9

Data request: Next record, please: CC(C)[C@H](CO)Nc1nc(Nc2cc(N)cc(Cl)c2)c2ncn(C(C)C)c2n1
Data returned: 37.7

Data request: Entry Cn1sc(=O)n(Cc2ccccc2)c1=O please
Data returned: 97.3

Data request: How about this compound: Cn1nc2c3c(cccc31)C(=O)c1ccccc1-2
Data returned: 96.3

Data request: Another compound to look at: Cc1nc2cc3nc(-c4cccs4)cnc3cc2n1C
Data returned: 96.6

Data request: How about CC(=O)O/N=C1\C(=C2\C(=O)Nc3cc(Br)ccc32)Nc2ccccc21 ?
Data returned: 93.9

====

measuredOn: RPS6KA6 KD1 KD2 (human)
testProtocol: radiometric filter-binding kinase assay, Kinase HotSpot
assaySetup: compound 0.5 µM; ATP 10 µM
Tick Fulfilled if residual activity is 90% or greater. Tick Not fulfilled if residual activity is less than 90%.

Answered examples (5):
1. O=C1Nc2ccccc2/C1=C1\Nc2ccccc2\C1=N/O; Not fulfilled
2. O=C1NC(=O)C(c2c[nH]c3ccccc23)=C1c1c[nH]c2ccccc12; Not fulfilled
3. CC(=O)O/N=C1\C(=C2\C(=O)Nc3cc(Br)ccc32)Nc2ccccc21; Not fulfilled
4. O=C1NC(=O)C(c2cn(CCCO)c3ncccc23)=C1c1cnccn1; Not fulfilled
5. O=C(CCCc1ccc(-c2ccccc2F)cc1)Nc1ccc(O)cc1; Fulfilled

Query molecule follows.
Data request: # bool: residual activity of O=C1Nc2ccccc2/C1=C1/Nc2ccccc2/C1=N\OCCC(O)CO (stereo unspecified) >= 90%
Data returned: Not fulfilled

====

Recorded residual activity, one value per entry.
measuredOn: MARK1 (human) (UniProt Q9P0L2)
Sequence (Q9P0L2 whole entry, looked up): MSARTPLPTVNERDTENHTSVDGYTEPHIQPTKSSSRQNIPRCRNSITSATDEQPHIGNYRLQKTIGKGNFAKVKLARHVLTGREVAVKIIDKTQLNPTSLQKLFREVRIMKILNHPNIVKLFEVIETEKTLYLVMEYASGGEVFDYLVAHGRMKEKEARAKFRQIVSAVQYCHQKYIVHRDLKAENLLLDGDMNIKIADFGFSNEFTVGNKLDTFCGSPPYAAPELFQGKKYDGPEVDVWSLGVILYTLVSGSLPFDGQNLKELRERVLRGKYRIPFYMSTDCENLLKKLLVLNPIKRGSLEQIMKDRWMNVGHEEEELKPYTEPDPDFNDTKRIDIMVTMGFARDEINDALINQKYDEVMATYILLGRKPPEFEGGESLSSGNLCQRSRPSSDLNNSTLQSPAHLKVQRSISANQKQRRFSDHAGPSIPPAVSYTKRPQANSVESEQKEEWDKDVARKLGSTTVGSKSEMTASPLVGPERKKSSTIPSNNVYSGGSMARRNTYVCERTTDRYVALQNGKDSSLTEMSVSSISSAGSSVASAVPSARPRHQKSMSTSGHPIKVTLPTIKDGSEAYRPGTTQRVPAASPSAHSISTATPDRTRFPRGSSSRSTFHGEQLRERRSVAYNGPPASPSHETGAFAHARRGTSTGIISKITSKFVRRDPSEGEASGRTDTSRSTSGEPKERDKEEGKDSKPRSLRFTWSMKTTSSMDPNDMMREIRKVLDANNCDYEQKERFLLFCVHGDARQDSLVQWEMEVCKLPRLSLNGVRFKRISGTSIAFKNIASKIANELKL
testProtocol: radiometric filter-binding kinase assay, Kinase HotSpot
assaySetup: compound 0.5 µM; ATP 10 µM
Give a bare numeral; the unit % is implied.

Recorded residual activity, per entry:
1) Cn1sc(=O)n(Cc2ccccc2)c1=O; 107
2) CC(=O)O/N=C1\C(=C2\C(=O)Nc3cc(Br)ccc32)Nc2ccccc21; 76
3) O=C1Nc2ccccc2/C1=C1/Nc2ccccc2/C1=N\OCCC(O)CO (stereo unspecified); 60.5

Data request: For the molecule O=C(Nc1cccc(Nc2cc(Nc3cccc(C(F)(F)F)c3)ncn2)c1)C1CC1 , what residual activity is on record?
Data returned: 102

Data request: Follow-up entry: Cc1nc2cc3nc(-c4cccs4)cnc3cc2n1C
Data returned: 102

Data request: Another molecule: CN(C)C[C@H]1CCn2c(c(C3=C(c4cn(C)c5ccccc45)C(=O)NC3=O)c3ccccc32)C1
Data returned: 92.8

Data request: Now the same for Oc1ccc(Nc2nc(-c3ccc(Cl)cc3)cs2)cc1
Data returned: 93.7

Data request: Here is the next molecule: O=C1NC(=O)C(c2c[nH]c3ccccc23)=C1c1c[nH]c2ccccc12
Data returned: 90.6

Data request: Also O=C1NC(=O)/C(=C\c2ccc3nccnc3c2)S1 ?
Data returned: 96.2

Data request: Next up: CCN(CC)CCCCN1c2ccccc2Oc2ccc(Cl)cc21
Data returned: 100

Data request: Ok, now CC(C)[C@H](CO)Nc1nc(Nc2cc(N)cc(Cl)c2)c2ncn(C(C)C)c2n1
Data returned: 87.5

====

measuredOn: JAK2 JH1 JH2 (human) (UniProt O60674)
Sequence (O60674 whole entry, looked up): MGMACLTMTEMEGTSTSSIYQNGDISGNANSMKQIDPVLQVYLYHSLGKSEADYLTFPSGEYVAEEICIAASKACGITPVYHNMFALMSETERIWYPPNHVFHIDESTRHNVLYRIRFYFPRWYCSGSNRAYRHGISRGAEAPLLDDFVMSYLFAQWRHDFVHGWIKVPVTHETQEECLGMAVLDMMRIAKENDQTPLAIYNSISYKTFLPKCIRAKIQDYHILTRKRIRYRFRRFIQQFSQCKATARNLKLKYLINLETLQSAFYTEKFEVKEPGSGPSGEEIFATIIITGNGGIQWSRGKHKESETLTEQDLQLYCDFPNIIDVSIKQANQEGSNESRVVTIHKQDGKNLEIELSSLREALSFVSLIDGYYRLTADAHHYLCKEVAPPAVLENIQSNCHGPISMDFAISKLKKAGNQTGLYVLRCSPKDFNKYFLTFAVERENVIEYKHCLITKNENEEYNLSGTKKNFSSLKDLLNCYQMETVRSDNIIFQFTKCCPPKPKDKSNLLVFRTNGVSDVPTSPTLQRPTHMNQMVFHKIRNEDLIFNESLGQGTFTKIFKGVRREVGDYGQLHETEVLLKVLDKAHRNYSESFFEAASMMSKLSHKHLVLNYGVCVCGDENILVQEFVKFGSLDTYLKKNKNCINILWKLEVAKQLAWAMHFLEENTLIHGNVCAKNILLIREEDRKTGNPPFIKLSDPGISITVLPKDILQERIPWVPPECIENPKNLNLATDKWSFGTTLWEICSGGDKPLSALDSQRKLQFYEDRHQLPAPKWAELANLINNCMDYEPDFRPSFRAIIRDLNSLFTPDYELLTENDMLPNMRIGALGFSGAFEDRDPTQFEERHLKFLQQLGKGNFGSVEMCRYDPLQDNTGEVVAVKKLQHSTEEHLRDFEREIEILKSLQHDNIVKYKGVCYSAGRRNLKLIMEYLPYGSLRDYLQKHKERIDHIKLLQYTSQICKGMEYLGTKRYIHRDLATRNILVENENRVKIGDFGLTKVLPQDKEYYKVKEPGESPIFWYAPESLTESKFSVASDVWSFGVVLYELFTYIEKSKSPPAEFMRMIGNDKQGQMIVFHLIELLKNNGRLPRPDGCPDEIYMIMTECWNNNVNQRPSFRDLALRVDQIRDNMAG
testProtocol: radiometric filter-binding kinase assay, Kinase HotSpot
assaySetup: compound 0.5 µM; ATP 10 µM
quantityMeasured: residual activity (%)
Supply the numeric figure in %, leaving out any unit text.

Worked examples follow.
1. COc1cc2ncnc(N3CCN(C(=O)Nc4ccc(Oc5ccccc5)cc4)CC3)c2cc1OC; 99.3
2. Nc1nnc2[nH]c3ccccc3nc1-2; 105
3. COc1ccc(CNC(=O)Nc2ncc([N+](=O)[O-])s2)cc1; 104
4. Cn1sc(=O)n(Cc2ccccc2)c1=O; 91.6
5. O=C(Nc1cccc(Nc2cc(Nc3cccc(C(F)(F)F)c3)ncn2)c1)C1CC1; 99.5
6. Nc1nccc(-c2c(-c3ccc(F)cc3)ncn2C2CCNCC2)n1; 99.6
7. COc1cc2ncc(-c3ccccc3)nc2cc1OC; 94.4
8. O=C1NC(=O)C(c2c[nH]c3ccccc23)=C1c1c[nH]c2ccccc12; 100
9. O=C(CCCc1ccc(-c2ccccc2F)cc1)Nc1ccc(O)cc1; 98.5
10. O=C1Cc2c([nH]c3ccc(Br)cc23)-c2ccccc2N1; 102

Data request: # residual activity lookup, item Oc1ccc(Nc2nc(-c3ccc(Cl)cc3)cs2)cc1
Data returned: 101

Data request: // query: CCn1cnc2c(Nc3cccc(Cl)c3)nc(N[C@@H]3CCCC[C@@H]3N)nc21
Data returned: 104

Data request: Here is the next compound: CCN(CC)CCCCN1c2ccccc2Oc2ccc(Cl)cc21
Data returned: 104

Data request: Please give the result for CC(=O)O/N=C1\C(=C2\C(=O)Nc3cc(Br)ccc32)Nc2ccccc21 too.
Data returned: 105

Data request: Query CC(C)[C@H](CO)Nc1nc(Nc2cc(N)cc(Cl)c2)c2ncn(C(C)C)c2n1 next
Data returned: 100

Data request: Note, next up: O=C(O)/C=C/c1cc(Br)c(Br)c(Br)c1Br
Data returned: 101

Data request: Continue with O=C1Nc2ccccc2/C1=C1\Nc2ccccc2\C1=N/O
Data returned: 84.6

Data request: Next record, please: O=C1NC(=O)/C(=C\c2ccc3nccnc3c2)S1
Data returned: 97.4

Data request: Can you handle O=C1Nc2ccccc2/C1=C1/Nc2ccccc2/C1=N\OCCC(O)CO (configuration not stated) next?
Data returned: 43.1

Data request: Follow-up entry: O=C1NC(=O)C(c2cn(CCCO)c3ncccc23)=C1c1cnccn1
Data returned: 97.8

Data request: Next record, please: Cn1cnc2cc3c(Nc4cccc(Br)c4)ncnc3cc21
Data returned: 103

Data request: Quick one: Cn1nc2c3c(cccc31)C(=O)c1ccccc1-2
Data returned: 95.9

Data request: Note, next up: CN([C@@H](Cc1ccc(OS(=O)(=O)c2cccc3cnccc23)cc1)C(=O)N1CCN(c2ccccc2)CC1)S(=O)(=O)c1cccc2cnccc12
Data returned: 96.6
